- Target under test: hGLP-1R (Homo sapiens, UniProt P43220)
- Sequence (P43220 24-463): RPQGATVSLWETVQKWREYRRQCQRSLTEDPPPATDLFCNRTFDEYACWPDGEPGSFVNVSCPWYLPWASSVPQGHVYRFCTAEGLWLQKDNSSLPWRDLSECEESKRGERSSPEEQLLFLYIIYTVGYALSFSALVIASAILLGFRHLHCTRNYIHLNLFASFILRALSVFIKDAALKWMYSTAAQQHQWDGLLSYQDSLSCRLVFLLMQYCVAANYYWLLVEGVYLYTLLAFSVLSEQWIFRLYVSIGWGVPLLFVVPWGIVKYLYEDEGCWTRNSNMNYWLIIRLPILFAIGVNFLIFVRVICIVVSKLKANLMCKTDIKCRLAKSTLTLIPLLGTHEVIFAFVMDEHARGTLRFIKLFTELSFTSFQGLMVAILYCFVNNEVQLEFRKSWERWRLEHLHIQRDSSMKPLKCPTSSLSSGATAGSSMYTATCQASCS
- Test details: cell-based or functional assay
Non-standard residues stand in square brackets, D forms with d. No end group written: not given here. αMePhe(2-F) = C[C@](N)(Cc1ccccc1F)C(=O)O; αMeL = CC(C)C[C@](C)(N)C(=O)O; Aib = CC(C)(N)C(=O)O
Measured cAMP Rel EC50 (1% HSA), listed per entry for reference.
Reported metric: cAMP Rel EC50 (1% HSA) (nM)

>>> result("Y[Aib]QGTFTSDYSI[αMeL]LDKQAAKAFVEWLLAGGPSSGEPPPSEG-NH2 (not fully specified (residue 20)) [Example 305]")
415
>>> result("YXQGTXTSDXXIXLDXKAQXEFIEXLIEGGPSSGEPPPTGE (Non-natural residues; K acylated AEEA-γGlu-C18 diacid; C-terminal amide; synthetic construct; SITE 2: note = 2-Aminoisobutyric Acid; SITE 6: note = alpha-methyl-2-fluoro-L-phenylalanine; SITE 10: note = 3-(4-Pyridyl)-L-alanine; SITE 11: note = alpha-methyl-L-serine; SITE 13: note = alpha-methyl-leucine; SITE 16: note = L-ornithine; SITE 17: note = Lysine is chemically mo) [Example 1143]")
49.6
>>> result("YXQGTFTSDXSKXLDKKAQXAFIEYLIEXGPSSGAPPPSGSEEE (non-natural residues; (γGlu)2-C18 diacid on Lys; C-terminal amide; synthetic construct; SITE 2: note = 2-Aminoisobutyric Acid; SITE 10: note = 3-(4-Pyridyl)-L-alanine; SITE 13: note = alpha-methyl-leucine; SITE 17: note = Lysine is chemically modified through conjugation of the epsilon-amino group of the Lysine side chain with (gamma-Glu)2-CO-(CH2)16-CO2H; SITE 20:) [Example 906]")
236
>>> result("Y[Aib]QGT[αMePhe(2-F)]TSDYSKLLDKIAQKAFIEYLIEGGPSSGEPPPSEG-NH2 (not fully specified (residue 20)) [Example 304]")
172
>>> result("YXQGTFTSDXSXXLDXKAQXAFIEYLIAGGPSSGAPPPSGSEE (Lys acylated γGlu-C18 diacid; non-natural residues; C-amide; synthetic construct; SITE 2: note = 2-Aminoisobutyric Acid; SITE 10: note = 3-(4-Pyridyl)-L-alanine; SITE 12: note = L-ornithine; SITE 13: note = alpha-methyl-leucine; SITE 16: note = L-ornithine; SITE 17: note = Lysine is chemically modified through conjugation of the epsilon-amino group of the Lys) [Example 1063]")
626
